Values compiled from ChEMBL document CHEMBL4052805.

tested on: HepG2; assay: Cytotoxicity against human HepG2 cells assessed as reduction in cell viability after 24 hrs by MTT assay; conditions: HepG2, 24 h
Structures can show the parent of a compound that is named as a salt.
quantity-measured: IC50

1) Cl.NCCCNC(=O)c1cn(CCCc2ccccc2)c2cc(Cl)ccc2c1=O: < 1 µM
2) NCCCNC(=O)c1cn(Cc2ccccc2)c2cc(Cl)ccc2c1=O: 5.42 µM
3) CCCCn1cc(C(=O)NCCCN)c(=O)c2ccc(Cl)cc21: 5.23 µM
4) Oc1ccnc2cc(Cl)ccc12: > 50 µM
5) C=CCn1cc(C(=O)NCCCN)c(=O)c2ccc(Cl)cc21: 17 µM
6) CCn1cc(C(=O)NCCCN)c(=O)c2ccc(Cl)cc21: 13.8 µM
7) COc1cccc2c1C(=O)c1c(O)c3c(c(O)c1C2=O)C[C@@](O)(C(=O)CO)C[C@@H]3O[C@H]1C[C@H](N)[C@H](O)[C@H](C)O1 [DOXORUBICIN HYDROCHLORIDE]: < 1 µM
